ASSAY_TARGET: T1, UNK ZnF1-6 (called full-length) (human, UniProt Q9C0B0 30-357)
T1 sequence: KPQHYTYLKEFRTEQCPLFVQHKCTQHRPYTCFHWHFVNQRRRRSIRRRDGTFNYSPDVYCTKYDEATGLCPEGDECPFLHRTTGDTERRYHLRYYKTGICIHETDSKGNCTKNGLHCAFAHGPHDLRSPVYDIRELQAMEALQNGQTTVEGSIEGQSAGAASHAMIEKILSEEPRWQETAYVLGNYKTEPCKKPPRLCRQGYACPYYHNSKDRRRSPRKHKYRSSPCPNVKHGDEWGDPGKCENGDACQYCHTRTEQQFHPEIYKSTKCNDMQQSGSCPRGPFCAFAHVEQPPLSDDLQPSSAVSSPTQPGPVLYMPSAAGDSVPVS
METHOD_DESCRIPTION: nsRBNS (natural sequence RNA bind-n-seq); RBNS binding buffer (assumed for nsRBNS): 25 mM Tris pH 7.5, 150 mM KCl, 3 mM MgCl2, 0.01% Triton X-100, 500 ug/ml BSA, 20 U/ml SUPERase-In, 4 C; UNK is unkempt and MSI1 is Musashi-1; names of the RNAs are library labels; protein concentration not given here; high values mean tight binding
Whole data set: some 5,800 sequences, median “enrichment r” near 0.68, cut for the highest 2% near 11. These entries were drawn from the full list.
VALUE_TYPE: binding signal (enrichment R)

BINDER	RESULT_VALUE
ENSG00000142634:stop:overlap|stop_codon|ENSG00000142634|stop_codon|NA|stop_codon (ssRNA) RNA: GGGAGUUCUACAGUCCGACGAUCAGGCGGAGGAGAUGAAGCAGCGGAAAGCGGCCUUCAAGGAGCUGCAGUCCACCUUUAAGUAGCGGGGGCUGCAGCCGACCGCCCUGCUCCGGCCCCAGUGUGGUGGGCGAGGGUGGCGCACAACAGAGGAUUGAGCAUCA	1.43
chr10:72011937:72012038:+|3pUTR|ENSG00000122863|msi1|total|mutant (ssRNA) RNA: GGGAGUUCUACAGUCCGACGAUCCAUACACCGCAGGUGGUCACCGAGUUAUUUUCCAAAAGCUGAGGAACAUAAAGCAAAUUCCGGCUUUUGUCCUUCUGCAAUACAUGCACUUGAAAAUAAACAGAAAAGAGAUGUUUAAUACAACAGAGGAUUGAGCAUCA	0.34
chr10:113876644:113876745:+|CDS|ENSG00000196865|msi1|total|mutant (ssRNA) RNA: GGGAGUUCUACAGUCCGACGAUCGGUUAAUGAUGCAGAUGCCAGCCUUUGGCAAGAACCCGAAGUUUCCUGCUGGCCAACUCCCGUCAUACUUGGACCUCGUGGAAACAUGUUGUUUUCUUUGAUUGGAGAGGGACACAAAGACAACAGAGGAUUGAGCAUCA	0.577
chr3:89481969:89482070:+|3pUTR|ENSG00000044524|msi1|total|mutant (ssRNA) RNA: GGGAGUUCUACAGUCCGACGAUCAUAUGUGUUUACUUUAAACUUGUCUUUUCAAAAUAUUACUCAGUUUAUGUUGUACAAUGCCGAUGGCCUCUUACUAAUGUAAAAUGAUUUGCCGUGGAAACAUUUAUAUUUUUAUAAUAACAACAGAGGAUUGAGCAUCA	0.702
chr17:68278117:68278284:-|CDS|ENSG00000108932|unk|FALSE|unique (ssRNA) RNA: GGGAGUUCUACAGUCCGACGAUCGCUUUGUUCCAAAGCCAAUGUGUAUACUGAAGUGCCUGAUGGAGGAUGGGGCUGGGCGGUAGCUGUUUCAUUUUUCUUCGUUGAAGUCUUCACCUACGGCAUCAUCAAGACAUUUGGUGUCAACAGAGGAUUGAGCAUCA	0.822
chr6:158785413:158785514:-|CDS|ENSG00000092820|msi1|FALSE|unique (ssRNA) RNA: GGGAGUUCUACAGUCCGACGAUCGAGCUCAUCCAGGACAUCACCCAGAAACUUUUCUUCCUCCAAGUGAAGGAAGGAAUCCUUAGCGAUGAGAUCUACUGCCCCCCUGAGACUGCCGUGCUCUUGGGGUCCUACGCUGUGCAGCAACAGAGGAUUGAGCAUCA	0.521
chr10:27397735:27399240:-|CDS|ENSG00000182077|control|control|control (ssRNA) RNA: GGGAGUUCUACAGUCCGACGAUCUCUUCUAGGCUACCCAGUGUUACAAAGUGCAAUUUCAACAAUAAUAGGGGUGUGUGUUUUAGCUGCAGCGAAAGCAUACAUCUUCAGAACAUUUUUUAAGAUUAUGUUUCUUGUUAUGAUCAACAGAGGAUUGAGCAUCA	0.38
chr1:28742582:28742694:+|CDS|ENSG00000198492|unk|FALSE|bound_elsewhere (ssRNA) RNA: GGGAGUUCUACAGUCCGACGAUCAGCAACGGAGAGCCCCACUUCCUACCAGAUGCAAUGUUUGGGCAACCAGGAGCCCUAGGUAGCACUCCAUUUCUUGGUCAGCAUGGUUUUAAUUUCUUUCCCAGUGGGAUUGACUUCUCACAACAGAGGAUUGAGCAUCA	0.665
chr16:87831719:87831834:-|3pUTR|ENSG00000103257|msi1_unk|FALSE|overlapping (ssRNA) RNA: GGGAGUUCUACAGUCCGACGAUCCCUGCGUUUGGAGGCCCCUGGGCUCUCACCCAGUCCCCACCCGCCUGCAGAGAGGGAACUAGGGCACCCCUUGUUUCUGUUGUUCCCGUGAAUUUUUUUCGCUAUGGGAGGCAGCCGAGGCAACAGAGGAUUGAGCAUCA	0.701
chrX:53645320:53645442:-|CDS|ENSG00000086758|unk|FALSE|unique (ssRNA) RNA: GGGAGUUCUACAGUCCGACGAUCUUAUUGGCUUCCUCUGAUAUGCAAGUGGUGCUGGCAGUCCUCAAUCUCCUAUAUGUAUUUAGCAAAAGAUCAAACUACAUCACUCGUCUGGGAUCUGACAAGAGGACCCCGCUGCUAACUCAACAGAGGAUUGAGCAUCA	0.899
chr1:6592219:6592320:-|3pUTR|ENSG00000162413|unk|total|mutant (ssRNA) RNA: GGGAGUUCUACAGUCCGACGAUCCCCAAAGCCGCCUUGGCUUGAGUUUUUGUCCUUGCCUCCUUUUCCGAGAAGAGGGCAUUCCGACUGCAUUUUCCUGGUUAAAGAAGGUUAAAGCAAAUGUUUAUUGCCUUUUCCCGUGAACAACAGAGGAUUGAGCAUCA	0.414
ENSG00000107863:be:win_51|CDS|ENSG00000107863|bound_else_gene|NA|bound_elsewhere_windowed (ssRNA) RNA: GGGAGUUCUACAGUCCGACGAUCCAAGGCCUGCGAGGUCUCAAAAAAUAAAGAUGGAAAAGAACAAAGUGAAACUGUAUCACUGUCUGAAGAUGAAACAUUCUCCUGGCCAGGUCCCAAAACAGUUACGUUGAAAAGAACAUCCAACAGAGGAUUGAGCAUCA	0.505
ENSG00000107863:be:win_2551|CDS|ENSG00000107863|bound_else_gene|NA|bound_elsewhere_windowed (ssRNA) RNA: GGGAGUUCUACAGUCCGACGAUCUUAAUUCGCCGUCAGCUCUCACAUGACCACGAAUCUGUUGGCCCUCCUAGCCUGGAUGCUCAGCCCAACUCAAAGACAGAAAGAUCAAAAUCAUAUGAUGAGGGUCUGGAUGAUUACAGACAACAGAGGAUUGAGCAUCA	0.436
